# assayed.target: ITK (Homo sapiens)
# Sequence (Q08881 1-620): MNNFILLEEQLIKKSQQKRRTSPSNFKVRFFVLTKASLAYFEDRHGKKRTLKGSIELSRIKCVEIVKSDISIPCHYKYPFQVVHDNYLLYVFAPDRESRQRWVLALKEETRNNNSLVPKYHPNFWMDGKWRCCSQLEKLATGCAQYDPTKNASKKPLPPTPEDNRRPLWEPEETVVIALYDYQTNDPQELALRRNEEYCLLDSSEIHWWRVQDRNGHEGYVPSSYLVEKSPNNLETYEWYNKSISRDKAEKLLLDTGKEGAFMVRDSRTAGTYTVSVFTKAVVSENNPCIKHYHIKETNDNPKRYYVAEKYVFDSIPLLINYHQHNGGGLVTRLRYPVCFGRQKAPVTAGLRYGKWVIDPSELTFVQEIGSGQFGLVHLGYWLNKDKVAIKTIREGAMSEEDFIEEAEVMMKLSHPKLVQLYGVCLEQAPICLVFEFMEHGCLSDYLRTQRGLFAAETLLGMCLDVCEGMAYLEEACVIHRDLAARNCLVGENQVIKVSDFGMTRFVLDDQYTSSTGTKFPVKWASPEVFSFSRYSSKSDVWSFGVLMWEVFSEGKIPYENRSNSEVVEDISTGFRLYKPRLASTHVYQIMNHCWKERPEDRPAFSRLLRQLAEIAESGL
outcome.measure: Ki (nM)

Prompt line: Quick one: Ki of CC1(C)CCc2c(C(=O)Nc3cnn(C(c4ccccc4)C4CCN(CCF)CC4)c3)n[nH]c2C1 (single isomer, unassigned) [Example 63b] ?
Response line: 1

(A) CC1(C)CCc2c(C(=O)Nc3cnn(C(c4cccnc4)C4CCCCS4(=O)=O)c3)n[nH]c2C1 (single isomer, unassigned) [Example 144d]
(B) CC1(C)CCc2c(C(=O)Nc3cnn(C(c4ccccc4)C4CNC4)c3)n[nH]c2C1 (single isomer, unassigned) [Example 34a]
Prompt line: Exercise: compare A and B ; which one has the greater Ki? # respond with the chosen item's label
Response line: B
(B: 3 nM, A: 2 nM)

Origin of values: patent US20160326142A1
